test system: OCI-AML2; experiment: cell viability relative to vehicle control; higher = less cytotoxic; conditions: 10 µM; SRSF2 genotype: wt/wt;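 further: after 48 h exposure read by CellTiter-Glo luminescence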
Lab note: class by cell viability, see Low (below 50%), Medium (50% to below 90%), High (90% or more)

• CS(=O)(=O)N1CCN(Cc2cc3nc(-c4cccc5[nH]ncc45)nc(N4CCOCC4)c3s2)CC1 = Medium
• CC(/C=C/C=C(\C)C(=O)O[C@@H]1O[C@H](CO[C@@H]2O[C@H](CO)[C@@H](O)[C@H](O)[C@H]2O)[C@@H](O)[C@H](O)[C@H]1O)=C\C=C\C=C(C)\C=C\C=C(/C)C(=O)O[C@@H]1O[C@H](CO[C@@H]2O[C@H](CO)[C@@H](O)[C@H](O)[C@H]2O)[C@@H](O)[C@H](O)[C@H]1O = High
• CC(C)(Oc1ccc(Cl)cc1)C(=O)OCCOC(=O)c1cccnc1 [Etofibrate] = Medium
• CCOc1cc2ncc(C#N)c(Nc3ccc(OCc4ccccn4)c(Cl)c3)c2cc1NC(=O)/C=C/CN(C)C = Low
• O=C(CCCCCN1C(=O)c2cccc3cccc(c23)C1=O)NO = Low
• CC1(C)CC[C@]2(C(=O)O)[C@H](O)C[C@]3(C)C(=CC[C@@H]4[C@@]5(C)CC[C@H](O)C(C)(C)[C@@H]5CC[C@]43C)[C@H]2C1 = High

Request: Please let me know in which category the item S=C=Nc1cccc(NC(=S)NCCCCNC(=S)Nc2cccc(N=C=S)c2)c1 belongs.
Response: High

Request: Please let me know in which category the item O=c1sn(-c2cccc3ccccc23)c(=O)n1Cc1ccccc1 belongs.
Response: Medium

Request: Please let me know in which category the item Cc1ccc(Sc2ccccc2N2CCNCC2)c(C)c1 belongs.
Response: Low

Request: Please let me know in which category the item O=C(NO)c1cnc(NC2(c3ccccc3)CC2)nc1 belongs.
Response: Low

Request: Please let me know in which category the item CCCS(=O)(=O)Nc1ccc(F)c(C(=O)c2c[nH]c3ncc(-c4ccc(Cl)cc4)cc23)c1F belongs.
Response: High

Request: Please let me know in which category the item CN1CC(=O)N2[C@H](c3ccc4c(c3)OCO4)c3[nH]c4ccccc4c3C[C@@H]2C1=O belongs.
Response: High
